assay-summary: Pharmacokinetic test (BA, CLtot)
Format: in vivo
particulars: rat, plasma; SD rats, intravenous administration 0.5 mg/kg; read-out: AUC (iv)
Given measured AUC, output satisfied if it is greater than or equal to 2000 ng·h/mL and not satisfied if not.

Solved cases (3 shown):
| molecular-string | label-value |
| --- | --- |
| C[C@@H](Cn1c(=O)[nH]/c(=N\c2ccc(Oc3ccccn3)cc2)n(Cc2ccc(Cl)cc2)c1=O)C(=O)O | satisfied |
| C[C@@H](Cn1c(=O)[nH]/c(=N\c2ccc(Oc3cccc(Cl)n3)cc2)n(Cc2ccc(Cl)cc2)c1=O)C(=O)O | satisfied |
| O=C(O)C1(Cn2c(=O)[nH]/c(=N\c3ccc(Oc4cccc(F)n4)cc3)n(Cc3ccc(Cl)cc3)c2=O)CC1 | satisfied |

Tell me whether AUC is at least 2000 ng·h/mL here: Cc1ccc(Cn2c(=O)n(C[C@H](C)C(=O)O)c(=O)[nH]/c2=N\c2ccc(Oc3ccc(F)cn3)cc2)cc1 not satisfied

Is AUC for Cc1ccc(Oc2ccc(/N=c3\[nH]c(=O)n(CC(C)(C)C(=O)O)c(=O)n3Cc3ccc(Cl)cc3)cc2)nc1 at or above 2000 ng·h/mL? not satisfied

Is it the case that Cc1ccc(Cn2c(=O)n(C[C@H](C)C(=O)O)c(=O)[nH]/c2=N\c2ccc(Oc3cccc(F)n3)cc2)cc1 has AUC reaching or exceeding 2000 ng·h/mL? not satisfied

###

tgt: human P2X3 receptor (Homo sapiens (Human))
Sequence (P56373 whole entry): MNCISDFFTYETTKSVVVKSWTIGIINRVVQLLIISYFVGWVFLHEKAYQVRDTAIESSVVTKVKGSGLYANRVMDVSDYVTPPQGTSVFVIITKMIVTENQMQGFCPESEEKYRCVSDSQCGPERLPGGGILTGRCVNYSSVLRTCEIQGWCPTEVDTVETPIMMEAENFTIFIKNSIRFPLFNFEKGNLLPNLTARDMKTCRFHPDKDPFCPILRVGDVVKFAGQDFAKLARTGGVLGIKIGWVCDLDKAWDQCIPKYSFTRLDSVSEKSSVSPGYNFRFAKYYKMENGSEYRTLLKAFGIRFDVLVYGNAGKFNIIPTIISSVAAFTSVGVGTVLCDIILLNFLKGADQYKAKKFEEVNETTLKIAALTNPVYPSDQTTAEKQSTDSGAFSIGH
assay-summary: Evaluation of human P2X3 receptor inhibitory activity (FLIPR Ca fluorescence, ATP-evoked)
Format: cell-based
particulars: C6BU-1 cells stably expressing human P2X3 receptor
Excerpt: […]
metric: IC50 (nM)
A number alone suffices; assume nM.

Guide cases for IC50, answers given:
| molecular-string | tgt | IC50 / nM |
| --- | --- | --- |
| Cc1ccc(Cn2c(=O)n(C[C@H](C)C(=O)O)c(=O)[nH]/c2=N\c2ccc(Oc3ccc(F)cn3)cc2)cc1 | human P2X3 receptor (Homo sapiens (Human)) | 6 |
| Cc1ccc(Cn2c(=O)n(C[C@H](C)C(=O)O)c(=O)[nH]/c2=N\c2ccc(Oc3ncc(C)s3)cc2)cc1 | human P2X3 receptor (Homo sapiens (Human)) | 8 |
| COC(=O)[C@@H](C)Cn1c(=O)[nH]/c(=N\c2ccc(Oc3ccccn3)c(F)c2)n(C[C@H]2CC[C@H](C)CC2)c1=O | human P2X3 receptor (Homo sapiens (Human)) | 9 |

For the record COC(=O)[C@@H](C)Cn1c(=O)[nH]/c(=N\c2ccc(Oc3ccc(F)cn3)cc2)n(Cc2ccc(F)cc2F)c1=O , what value of IC50 is listed for human P2X3 receptor (Homo sapiens (Human))? 23

Requested read-out IC50, target or system human P2X3 receptor (Homo sapiens (Human)), entry C[C@@H](C(=O)O)[C@H](C)n1c(=O)[nH]/c(=N\c2ccc(Oc3ccnc(Cl)c3)cc2)n(Cc2ccc(Cl)cc2)c1=O 8

Under human P2X3 receptor (Homo sapiens (Human)): IC50 value of [2H]C([2H])([2H])c1ccc(Cn2c(=O)n(C[C@H](C)C(=O)O)c(=O)[nH]/c2=N\c2ccc(Oc3ccc(F)cn3)cc2)cc1 ? 6

###

Let's go through some IC50 measurements on CYP3A4 (Homo sapiens (Human), UniProt P08684) together.
Sequence (P08684 whole entry): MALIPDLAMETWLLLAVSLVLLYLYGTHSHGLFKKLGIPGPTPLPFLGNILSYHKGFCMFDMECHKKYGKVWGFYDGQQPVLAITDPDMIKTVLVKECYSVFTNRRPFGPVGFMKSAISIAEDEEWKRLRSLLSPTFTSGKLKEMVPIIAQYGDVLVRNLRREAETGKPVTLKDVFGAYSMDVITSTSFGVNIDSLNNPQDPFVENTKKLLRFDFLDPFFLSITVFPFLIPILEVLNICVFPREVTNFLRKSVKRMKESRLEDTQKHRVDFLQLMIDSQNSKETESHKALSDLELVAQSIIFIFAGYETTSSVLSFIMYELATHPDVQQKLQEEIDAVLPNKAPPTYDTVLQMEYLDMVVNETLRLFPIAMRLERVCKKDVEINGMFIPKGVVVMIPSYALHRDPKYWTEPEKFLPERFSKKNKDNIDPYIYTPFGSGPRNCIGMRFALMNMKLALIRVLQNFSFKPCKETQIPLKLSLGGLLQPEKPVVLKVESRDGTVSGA

Solved cases below.
| molecular-string | IC50 |
| --- | --- |
| C[C@@H](Cn1c(=O)[nH]/c(=N\c2ccc(Oc3cnc(Cl)cn3)cc2)n(Cc2ccc(Cl)cc2)c1=O)C(=O)O | > 20 µM |
| COc1cc(Oc2ccc(/N=c3\[nH]c(=O)n(C[C@H](C)C(=O)O)c(=O)n3Cc3ccc(Cl)cc3)cc2)cc(F)n1 | > 20 µM |

// moving on: another record for IC50
Using the record for Cc1ccc(Cn2c(=O)n([C@@H](C)[C@@H](C)C(=O)O)c(=O)[nH]/c2=N\c2ccc(Oc3cccc(F)n3)cc2)cc1 , report its IC50. > 20 µM
